Provide the reported solubility kinetic of each item.
conditions: buffer; pH 7.4; 200.0 µM

[ask] Name the recorded solubility kinetic of the item c1ccc2c(c1)Sc1ccccc1N2CC1CN2CCC1CC2 (centres undefined) in your answer.
[reply] > 48.4 µg/mL

[ask] Return reported solubility kinetic. Input compound: `Cc1nnc(SCC(=O)NC23CC4CC(CC(C4)C2)C3)s1`
[reply] > 48.5 µg/mL

[ask] Indicate the recorded solubility kinetic value for this compound: `O=C(CN1C(=O)c2ccccc2C1=O)OCC(=O)N1CCCCC1`
[reply] > 49.6 µg/mL

[ask] Tell me measured solubility kinetic for `CCN(C(=O)c1cn(C)c(=O)c2ccccc12)c1ccccc1F` please.
[reply] > 48.7 µg/mL

[ask] Give solubility kinetic for CC(CN(C)C)CN1c2ccccc2CCc2ccccc21.O=C(O)/C=C\C(=O)O (centres undefined)
[reply] > 61.6 µg/mL

[ask] Find the measured solubility kinetic of `CS(=O)(=O)N1CCC(C(=O)NCc2ccc(Cl)cc2)CC1` and report it.
[reply] > 49.6 µg/mL

[ask] Provide measured solubility kinetic value, entry: CC(=O)Oc1ccc(C(=O)N2c3ccccc3NC(=O)C2C)cc1 (centres undefined)
[reply] > 48.7 µg/mL

[ask] Kindly indicate its recorded solubility kinetic. Item: Cc1cccc(C)c1NC(=O)CN1C(=O)NC(C)(C2CC2)C1=O (centres undefined)
[reply] > 47.3 µg/mL

[ask] Give recorded solubility kinetic. COc1ccc(C(OC(=O)c2ccco2)C(=O)NC(C)(C)C)cc1 (centres undefined)
[reply] > 49.7 µg/mL

====

Please go through the items and note down their solubility kinetic.
conditions: buffer; pH 7.4; 200.0 µM

[ask] # return recorded solubility kinetic for input CCOc1ccc(CN(C)C(C)C(=O)NCc2ccccc2)cc1 (centres undefined)
[reply] > 49 µg/mL

[ask] Report measured solubility kinetic; entry is CCc1cccc(C)c1NC(=O)C1CCCN(S(C)(=O)=O)C1 (centres undefined)
[reply] > 48.7 µg/mL

[ask] In one line, give reported solubility kinetic of the entry `COc1ccc(CN2C(=O)CCCc3ccccc32)cc1` .
[reply] > 42.2 µg/mL

[ask] Look up and state reported solubility kinetic for O=C(CN1C(=O)COc2ccccc21)NCC1CCCO1 (centres undefined)
[reply] > 43.5 µg/mL

[ask] Note down solubility kinetic recorded for `O=C(O)c1ccc(CN2C(=O)c3ccc(C(=O)O)cc3C2=O)cc1`
[reply] > 48.8 µg/mL

[ask] Please supply the value of reported solubility kinetic for the item `O=C(O)C1=NN(c2c(F)c(F)cc(F)c2F)C(=O)CC1`
[reply] > 43.5 µg/mL

[ask] Return the recorded solubility kinetic value; entry: Cc1ccc(N2CC(C(=O)NC3CC3)CC2=O)cc1 (centres undefined)
[reply] > 38.7 µg/mL

[ask] For the compound `COCCNC(=O)c1ccccc1NC(=O)Nc1ccccc1` , report solubility kinetic.
[reply] > 47 µg/mL

[ask] Find the measured solubility kinetic of `O=C(Cc1ccc([N+](=O)[O-])cc1)c1ccc(O)cc1O` and report it.
[reply] > 41 µg/mL

====

I'd appreciate it if you could supply solubility kinetic values for the items below.
conditions: buffer; pH 7.4; 200.0 µM

[ask] Tell me solubility kinetic reported for `COCc1ccc(C(=O)Nc2ccc(C(=O)O)cc2)o1`
[reply] > 41.3 µg/mL

[ask] Respond only with solubility kinetic recorded for `Cc1ccc(C(=O)NC(=S)N2CCCC2)cc1`
[reply] > 37.3 µg/mL

[ask] # return recorded solubility kinetic for input COc1ccc(-c2nnc(SCC(=O)N(C)C3CCS(=O)(=O)C3)n2C(C)C)cc1 (stereo not drawn)
[reply] > 65.8 µg/mL

====

conditions: buffer; pH 7.4; 200.0 µM
METRIC: solubility kinetic

[ask] Provide one value: measured solubility kinetic of `Cn1c(/C(C#N)=C(\O)c2ccc([N+](=O)[O-])cc2)nc2ccccc21`
[reply] < 0.2 µg/mL

[ask] Entry `CCn1ccnc1C(O)(c1ccccc1)c1ccccc1` needs its solubility kinetic filled in; supply it.
[reply] > 41.8 µg/mL

[ask] In one line, give reported solubility kinetic of the entry CC(CCn1cccn1)NC(=O)CCc1nnc(C2CCCCC2)o1 (stereo not given) .
[reply] > 51.8 µg/mL

[ask] Return value of solubility kinetic for input `Cc1c(C)n(CCC(=O)O)c2ccccc12` , no commentary.
[reply] > 32.6 µg/mL

[ask] Kindly indicate its recorded solubility kinetic. Item: `NS(=O)(=O)c1ccc(CCN2C(=O)CCC2=O)cc1`
[reply] > 42.3 µg/mL

[ask] Please look at this compound and report its solubility kinetic: `COc1ccccc1C(=O)NCCC(=O)NC1=NCCS1`
[reply] > 46.1 µg/mL

[ask] Tell me solubility kinetic reported for `CC(=O)COC(=O)C1=NN(c2ccccc2)C(=O)CC1`
[reply] > 41.1 µg/mL

[ask] Quickly give me recorded solubility kinetic for `Cc1cccc(-n2c(-c3ccccc3)nc3ccccc3c2=O)n1`
[reply] > 47 µg/mL

[ask] Using known records, supply solubility kinetic for `Nc1c([N+](=O)[O-])c(=O)oc2ccccc12`
[reply] > 30.9 µg/mL

[ask] State, in one line, measured solubility kinetic of `Cn1ccnc1SCC(=O)c1cccc(C(F)(F)F)c1`
[reply] > 45 µg/mL

[ask] Tell me solubility kinetic reported for `CCn1c(SCC(=O)NC(C)(C)C)nnc1-c1ccncc1`
[reply] > 47.9 µg/mL

[ask] Return the recorded solubility kinetic value; entry: CCCC[N+]1(C)[C@@H]2CC(OC(=O)[C@H](CO)c3ccccc3)C[C@H]1[C@@H]1O[C@@H]12.[Br-] (stereo not given in full)
[reply] > 66.1 µg/mL

[ask] Specify measured solubility kinetic for `COc1ccc(NC(=O)CC2(CC(=O)O)CCCC2)cn1` .
[reply] > 43.9 µg/mL

[ask] Respond only with solubility kinetic recorded for `CC(C)(CC(=O)O)CC(=O)Nc1ccc(Cl)c(Cl)c1`
[reply] > 45.6 µg/mL

[ask] Report solubility kinetic for `CCc1noc(C)c1C(=O)NCCc1c[nH]c2ccccc12`
[reply] > 44.6 µg/mL

[ask] // Input: `COc1ccc(C(=O)Nc2ccccc2C(=O)Nc2ccc(C(=O)O)cc2)cc1` . Output its solubility kinetic only.
[reply] > 58.6 µg/mL

[ask] Identify solubility kinetic associated with the compound `O=c1cc(CN2CCOCC2)c2cc(Cl)c(O)cc2o1`
[reply] > 44.4 µg/mL

[ask] Given the compound `O=C(NCc1ccc2c(c1)OCO2)c1ccc(Br)o1` , write its reported solubility kinetic.
[reply] > 48.6 µg/mL

[ask] Entry Cc1csc(SC(C)C(=O)Nc2ccc3c(c2)OCCO3)n1 (stereo not given) needs its solubility kinetic filled in; supply it.
[reply] > 50.5 µg/mL

[ask] Output solubility kinetic of `O=C(COC(=O)c1ccc(O)cc1)Nc1ccccc1`
[reply] > 40.7 µg/mL

====

Provide the reported solubility kinetic of each item.
details: buffer; pH 7.4; 200.0 µM
Use µg/mL as the unit, but write only the number.

[ask] Retrieve solubility kinetic measured for Cc1ccccc1OC(C)C(=O)Nc1ccc2c(c1)OCCO2 (stereo not drawn) and print it.
[reply] 40.8

[ask] Supply recorded solubility kinetic for `CCc1ccc(OCCn2ccnc2)cc1` here.
[reply] 19.7

[ask] Quick one: give measured solubility kinetic for CN1CCN(C(=S)NC(CC(=O)c2ccccc2)c2ccccc2)CC1 (stereo not drawn)
[reply] 43.2

[ask] Supply recorded solubility kinetic for `CCc1ccc(NC(=O)Cn2cnc([N+](=O)[O-])c2)cc1` here.
[reply] 23

[ask] Report measured solubility kinetic; entry is OC(CN1CC=C(c2ccccc2)CC1)c1ccccc1 (stereo not drawn)
[reply] 40.8

[ask] Return value of solubility kinetic for input `O=C(CSc1nc2ccccc2[nH]1)c1c[nH]c2ccccc12` , no commentary.
[reply] 0.6

[ask] In one line, give reported solubility kinetic of the entry `C=CCN1C(=O)C2(OCCCO2)c2cccc(C)c21` .
[reply] 37.9

[ask] Using the record for `OCCCNc1nc(-c2ccccc2)c2cc(Cl)ccc2n1` , state its measured solubility kinetic.
[reply] 21.5

[ask] Look up and state reported solubility kinetic for `c1ccc2c(c1)CSc1ccccc1N2`
[reply] 6.8

[ask] Find the measured solubility kinetic of `O=c1oc2c(O)cccc2cc1-c1nc2ccccc2[nH]1` and report it.
[reply] 1.1

[ask] Tell us which solubility kinetic value is on record for `CN(CCc1ccccn1)Cc1ccc(Cl)c(Cl)c1`
[reply] 29.2

[ask] Indicate the recorded solubility kinetic value for this compound: `Cc1cc(C)nc(SC/C=C/c2ccccc2)n1.Cl`
[reply] 5.4

[ask] Using the record for NC(Cc1c[nH]c2ccccc12)C(=O)NCc1ccccc1 (stereo not drawn) , state its measured solubility kinetic.
[reply] 39.1

[ask] Entry `NC(=O)c1c(NC(=O)c2cccnc2)sc2c1CCCCC2` needs its solubility kinetic filled in; supply it.
[reply] 6

[ask] For `NC(=O)c1c(NC(=O)c2ccccc2Cl)sc2c1CCC2` , write its solubility kinetic.
[reply] 0.7

meta.source: PubChem BioAssay AID1996
